# method_notes: self-splicing fitness, log relative to wild type (ln ratio); higher = more splicing; Tetrahymena group I intron in knt gene, E. coli kanamycin selection, DiMSum; sequences stand for … in CUCUCU…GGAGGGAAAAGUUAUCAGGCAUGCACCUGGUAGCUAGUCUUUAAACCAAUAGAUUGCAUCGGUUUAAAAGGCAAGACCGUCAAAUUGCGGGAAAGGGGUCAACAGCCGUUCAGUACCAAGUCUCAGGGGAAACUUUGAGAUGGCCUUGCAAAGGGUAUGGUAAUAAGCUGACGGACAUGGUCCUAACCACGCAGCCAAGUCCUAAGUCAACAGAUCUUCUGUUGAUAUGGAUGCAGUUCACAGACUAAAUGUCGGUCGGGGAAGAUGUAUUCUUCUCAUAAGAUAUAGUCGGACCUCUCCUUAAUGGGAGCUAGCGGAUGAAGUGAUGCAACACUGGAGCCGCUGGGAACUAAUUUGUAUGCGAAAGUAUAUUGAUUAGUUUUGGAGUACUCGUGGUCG;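 further: selection with 25 µg/mL kanamycin versus none on LB agar overnight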
# measurement_conditions: 30 °C
Respond with T for self-splicing fitness (ln) values of -2 and above, F for values below.

# input Could you please find out whether "GGACAGCAAUAUUACGCCUC" has self-splicing fitness (ln) that meets -2 or exceeds it?
# output T

# input Could you please find out whether "CUCGAGCAAUAUUACGGCAU" has self-splicing fitness (ln) that meets -2 or exceeds it?
# output F

# input Could you please find out whether "GCCCAGCAAUAUUACGUCCG" has self-splicing fitness (ln) that meets -2 or exceeds it?
# output F

# input Could you please find out whether "UAUGAGCAAUAUUACGACGA" has self-splicing fitness (ln) that meets -2 or exceeds it?
# output T

# input Could you please find out whether "GGAAAGCAAUAUUACGGUUC" has self-splicing fitness (ln) that meets -2 or exceeds it?
# output F

# input Could you please find out whether "AACUAGCAAUAUUACGCCUU" has self-splicing fitness (ln) that meets -2 or exceeds it?
# output T

# input Could you please find out whether "GACCAGCAAUAUUACGAGGC" has self-splicing fitness (ln) that meets -2 or exceeds it?
# output F

# input Could you please find out whether "GGAGAGCAAUAUUACGACCU" has self-splicing fitness (ln) that meets -2 or exceeds it?
# output T

====

# method_notes: self-splicing fitness, log relative to wild type (ln ratio); higher = more splicing; Tetrahymena group I intron in knt gene, E. coli kanamycin selection, DiMSum; sequences stand for … in CUCUCU…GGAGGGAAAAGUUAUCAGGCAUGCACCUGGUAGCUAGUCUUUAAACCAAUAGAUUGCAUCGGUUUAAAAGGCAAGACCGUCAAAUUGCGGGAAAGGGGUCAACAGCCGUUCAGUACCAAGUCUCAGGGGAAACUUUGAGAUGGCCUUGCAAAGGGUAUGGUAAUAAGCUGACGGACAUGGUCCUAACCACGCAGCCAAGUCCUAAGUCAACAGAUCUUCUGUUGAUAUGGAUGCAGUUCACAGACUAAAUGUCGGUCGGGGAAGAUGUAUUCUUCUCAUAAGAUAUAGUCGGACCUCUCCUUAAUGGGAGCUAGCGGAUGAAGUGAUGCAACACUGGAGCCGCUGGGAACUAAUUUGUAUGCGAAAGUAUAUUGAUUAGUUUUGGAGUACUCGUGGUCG
# measurement_conditions: 37 °C
Respond with true for self-splicing fitness (ln) values of -2 and above, false for values below.

# input Could you please find out whether "UUCUAGCAAUAUUACGCUGC" has self-splicing fitness (ln) that meets -2 or exceeds it?
# output false

# input Could you please find out whether "GGCAAGCAAUAUUACGGCAG" has self-splicing fitness (ln) that meets -2 or exceeds it?
# output true

# input Could you please find out whether "AUUAAGCAAUAUUACGGAUU" has self-splicing fitness (ln) that meets -2 or exceeds it?
# output true

# input Could you please find out whether "UACGAGCAAUAUUACGGUUU" has self-splicing fitness (ln) that meets -2 or exceeds it?
# output false

# input Could you please find out whether "GGCCAGCAAUAUUACGAAAG" has self-splicing fitness (ln) that meets -2 or exceeds it?
# output false

# input Could you please find out whether "ACUUAGCAAUAUUACGUUGA" has self-splicing fitness (ln) that meets -2 or exceeds it?
# output false

# input Could you please find out whether "UAGCAGCAAUAUUACGAGAG" has self-splicing fitness (ln) that meets -2 or exceeds it?
# output false

# input Could you please find out whether "ACUGAGCAAUAUUACGCACU" has self-splicing fitness (ln) that meets -2 or exceeds it?
# output true
